# TARGET SYSTEM: Muscarinic acetylcholine receptor M3 (Cavia porcellus) (UniProt Q8VH26)
# Sequence (Q8VH26 1-587): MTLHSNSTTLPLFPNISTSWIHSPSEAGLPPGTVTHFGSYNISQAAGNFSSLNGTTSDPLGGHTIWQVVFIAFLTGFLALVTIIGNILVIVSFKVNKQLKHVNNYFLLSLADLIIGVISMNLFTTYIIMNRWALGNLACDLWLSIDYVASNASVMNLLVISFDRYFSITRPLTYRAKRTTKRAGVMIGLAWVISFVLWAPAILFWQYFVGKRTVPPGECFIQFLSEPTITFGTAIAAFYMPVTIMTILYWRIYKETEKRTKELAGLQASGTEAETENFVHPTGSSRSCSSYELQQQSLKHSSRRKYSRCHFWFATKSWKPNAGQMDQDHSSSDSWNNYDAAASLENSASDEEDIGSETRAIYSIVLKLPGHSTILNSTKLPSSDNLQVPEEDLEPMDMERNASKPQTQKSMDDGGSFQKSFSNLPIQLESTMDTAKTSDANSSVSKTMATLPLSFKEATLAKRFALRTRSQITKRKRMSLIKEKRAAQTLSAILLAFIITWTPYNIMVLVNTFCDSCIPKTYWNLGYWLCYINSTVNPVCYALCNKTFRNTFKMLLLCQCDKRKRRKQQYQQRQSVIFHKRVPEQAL
# ASSAY DETAILS: Affinity for ileal muscarinic M3 receptor of guinea pig ileum
# Assay type: tissue-based
TEST READOUT: pKB
Hey, just send me the number, nothing else.

IN: Please report the measured pKB for Cn1c2c(c3ccccc31)C(=O)C(CN1CCC(C(=O)c3ccccc3)CC1)CC2 (centres undefined)
OUT: 5.01

IN: State, in one line, measured pKB of Cn1c2c(c3ccccc31)C(=O)C(CN1CCN(c3ccccc3F)CC1)CC2 (centres undefined)
OUT: 4.72

IN: Please give the documented pKB of Cn1c2c(c3ccccc31)C(=O)C(CN1CCN(c3ccc(F)cc3)CC1)CC2 (centres undefined)
OUT: 5.55

IN: Provide pKB value for the following compound: Cn1c2c(c3ccccc31)C(=O)C(CN1CCC(=C(c3ccc(F)cc3)c3ccc(F)cc3)CC1)CC2 (centres undefined)
OUT: 5.7

IN: Give the reported value of pKB for this record: Cn1c2c(c3ccccc31)C(=O)C(CN1CCC(c3ccccc3)CC1)CC2 (centres undefined)
OUT: 4.97

IN: Provide one value: measured pKB of O=C(c1ccc(F)cc1)C1CCN(CCn2c(=O)[nH]c3ccccc3c2=O)CC1
OUT: 4.18

IN: Give recorded pKB. CN(CCn1c(=O)[nH]c2ccccc2c1=O)CC1CCc2c(c3ccccc3n2C)C1=O (centres undefined)
OUT: 4.68

IN: Dear colleague, please send me the reported pKB for Cn1c2c(c3ccccc31)C(=O)C(CN1CCC(C(=O)c3ccc(F)cc3)CC1)CC2 (racemic) when you can.
OUT: 5.19

IN: Dear colleague, please send me the reported pKB for Cn1c2c(c3ccccc31)C(=O)C(CN1CCCCC1)CC2 (centres undefined) when you can.
OUT: 4.98

---

# TARGET SYSTEM: 5-hydroxytryptamine receptor 2A (Rattus norvegicus) (UniProt P14842)
# Sequence (P14842 whole entry): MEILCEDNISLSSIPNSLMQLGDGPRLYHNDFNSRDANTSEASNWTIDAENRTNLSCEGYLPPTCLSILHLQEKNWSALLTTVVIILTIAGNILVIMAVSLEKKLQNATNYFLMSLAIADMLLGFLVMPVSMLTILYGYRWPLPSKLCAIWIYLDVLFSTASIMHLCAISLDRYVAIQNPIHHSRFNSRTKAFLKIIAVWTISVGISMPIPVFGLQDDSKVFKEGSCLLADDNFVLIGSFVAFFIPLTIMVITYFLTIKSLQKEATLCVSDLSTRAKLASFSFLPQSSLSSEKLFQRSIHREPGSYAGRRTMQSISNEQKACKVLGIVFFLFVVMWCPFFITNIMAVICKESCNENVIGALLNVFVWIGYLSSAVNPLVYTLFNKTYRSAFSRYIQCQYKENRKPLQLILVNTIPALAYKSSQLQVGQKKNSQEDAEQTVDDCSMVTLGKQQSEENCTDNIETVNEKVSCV
# ASSAY DETAILS: Affinity for 5-HT2A receptor of rat tail artery
# Type: tissue-based
TEST READOUT: pKB
Give your answer as a number; write no unit.

IN: Give pKB for Cn1c2c(c3ccccc31)C(=O)C(CNc1ncc[nH]1)CC2 (stereo not given) tested on 5-hydroxytryptamine receptor 2A (Rattus norvegicus) (UniProt P14842).
OUT: 6.73

IN: Specify the recorded pKB for Cn1c2c(c3ccccc31)C(=O)C(CN1CCCCC1)CC2 (stereo not given) , system: 5-hydroxytryptamine receptor 2A (Rattus norvegicus) (UniProt P14842).
OUT: 5.98

IN: Write pKB of Cn1c2c(c3ccccc31)C(=O)C(CN1CC=C(c3c[nH]c4ccc(F)cc34)CC1)CC2 (stereo not given) ; system used: 5-hydroxytryptamine receptor 2A (Rattus norvegicus) (UniProt P14842)
OUT: 7.22

IN: Provide the reported pKB (system: 5-hydroxytryptamine receptor 2A (Rattus norvegicus) (UniProt P14842)) for Cn1c2c(c3ccccc31)C(=O)C(CN1CCN(c3ccccc3F)CC1)CC2 (stereo not given)
OUT: 7.8

IN: Enter recorded pKB with 5-hydroxytryptamine receptor 2A (Rattus norvegicus) (UniProt P14842) for Cn1c2c(c3ccccc31)C(=O)C(CNCCc1c[nH]cn1)CC2 (stereo not given) here.
OUT: 6.75

IN: Tell me pKB of COc1ccc2[nH]cc(C3=CCN(CC4CCc5c(c6ccccc6n5C)C4=O)CC3)c2c1 (stereo not given) when tested on 5-hydroxytryptamine receptor 2A (Rattus norvegicus) (UniProt P14842).
OUT: 6.09

IN: GET pKB | system: 5-hydroxytryptamine receptor 2A (Rattus norvegicus) (UniProt P14842) | item: Cn1c2c(c3ccccc31)C(=O)C(CN1CCC(=C(c3ccc(F)cc3)c3ccc(F)cc3)CC1)CC2 (stereo not given)
OUT: 6.3

IN: // fetch pKB for Cn1c2c(c3ccccc31)C(=O)C(CNCc1ncc[nH]1)CC2 (stereo not given) ; system: 5-hydroxytryptamine receptor 2A (Rattus norvegicus) (UniProt P14842)
OUT: 6.59

IN: GET pKB where system = 5-hydroxytryptamine receptor 2A (Rattus norvegicus) (UniProt P14842) and item = Cn1c2c(c3ccccc31)C(=O)C(CN1CCC(c3ccccc3)CC1)CC2 (stereo not given)
OUT: 8.43

IN: Tell me pKB of CN(CCn1c(=O)[nH]c2ccccc2c1=O)CC1CCc2c(c3ccccc3n2C)C1=O (stereo not given) when tested on 5-hydroxytryptamine receptor 2A (Rattus norvegicus) (UniProt P14842).
OUT: 5.5
